Where do the numbers come from? From patent US12344626B2.

# Tested on: human tumor cell lines
# test.description: Cell growth inhibition assay (Calcein AM)
# Type: cell-based
# applied.conditions: Calcein AM, incubation for 3 days
Exercise: state measured EC50 for each of the compounds provided.
Numbers only, in nM.

In [3]: df
Out[3]:
                              smiles_record  endpoint_label  reported_measurement
0  C/C(=N\NC(=S)N(C)C)c1ccc(O[C@H]2CCOC2)cn1.C/C(=N\NC(=S)N(C)C)c1ccc(O[C@H]2CCOC2)cn1.[Zn]            EC50                  7.08

Pending compound:
Need EC50 of "COc1ccnc(/C(C)=N/NC(=S)N(C)C)c1.COc1ccnc(/C(C)=N/NC(=S)N(C)C)c1.[Zn]" , thanks.
0.22
